Values were extracted from PubChem BioAssay.

The reader will find reported z-score values listed item by item below.
- assay.procedure: PSAC antagonists in infected red cells, primary screen, cell-based, P. falciparum Indochina, OD700, 2 h (AID 1155);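 note: lysis reports solute entry through the parasite surface anion channel PSAC; channel blockers reduce lysis of infected cells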
- applied.conditions: P. falciparum Indochina infected erythrocytes, osmotic lysis OD700; higher = more signal, called active from +8 up or from −8 down
Response field accepts a number only; no unit should be typed.

Please review the entries below; each comes with its answer.
# molecule, z-score
rows = [
    ("Cc1c(NC(=O)/C(C#N)=C/c2ccc(Cl)cc2)c(=O)n(-c2ccccc2)n1C", -0.238),
    ("COc1cc2c(cc1O)C(C1CC1)N(Cc1ccc([N+](=O)[O-])o1)CC2 (stereo not given)", 6.01),
    ("CC(C)N1CC=CC23O[C@@H]4C=CCCOC(=O)C4[C@H]2C(=O)N(CCCCCO)[C@@H]3C1=O (stereo not given in full)", 0.261),
    ("COC(=O)[C@]1(CO)N=C(c2ccc(OCCCO)cc2)O[C@@H]1c1ccccc1CN=[N+]=[N-]", 0.731),
]

// next item, z-score requested
Just so you know, measured z-score for `CC(C)[Si](C#CCCCC#N)(O[C@H](c1ccccc1)c1cn([C@H](C)c2ccccc2)nn1)C(C)C` came out at 0.878

====

- assay.procedure: basal RPMI8226 viability, no added stimulus, profiling panel, cell-based, calcein-AM fluorescence, 48 h, PK04 Diversity Set (AID 1166);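 note: cells grown under basal conditions without added stimulus; test concentration not given here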
- applied.conditions: RPMI8226 myeloma viability, higher = more signal
Reported z-score values for the following compounds.

Solved cases below.
# compound, z-score
data = [
    ("COc1ccc([Si](C)(C)[C@H]2[C@H](CCO)O[C@@]3(C(=O)N(Cc4ccccc4)c4ccc(N(C=O)c5ccccc5)cc43)[C@@H]2C)cc1", -2.82),
    ("COC(=O)c1ccc([C@H](NC(=O)c2ccccc2)[C@]2(C)C[C@H]2C2CCCCC2)cc1", -0.733),
]

Form: compound = `CCc1cccc(NC(=O)O[C@H]2[C@H](OC(=O)Nc3ccc4c(c3)OCO4)[C@H](OC(=O)Nc3ccc4c(c3)OCO4)[C@@H](OC)O[C@@H]2CO)c1` ; z-score = -2.17

z-score for `COCCOC(=O)N1C(=O)[C@@]2(c3cc(C#CC4(O)CCCCCC4)ccc31)[C@H](C(=O)N1CCc3cc(OC)c(OC)cc3C1)[C@H]1C(=O)O[C@H](c3ccccc3)[C@H](c3ccccc3)N1[C@@H]2c1ccc(O)cc1` is -0.964

Reported z-score of `COCCOC(=O)N1C(=O)[C@@]2(c3ccccc31)[C@H](C(=O)N1CCCCCCC1)[C@H]1C(=O)O[C@H](c3ccccc3)[C@H](c3ccccc3)N1[C@@H]2c1ccc(O)cc1` : -1.54

z-score reading for CC(C)C[C@H]1NC(=O)[C@@H](C)NC(=O)[C@@]23C(=O)N[C@@H](Cc4ccccc4)C2[C@H](C)[C@@]2(C)O[C@H]2C3/C=C/C/C=C\CNC1=O (stereo partly specified) : -0.64

====

- assay.procedure: small-molecule binders of probe aInhba, primary screen, biochemical, small-molecule microarray, 635/667 nm fluorescence (AID 1148);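 note: score merges 667nm spot fluorescence with signal-to-noise for antibody binding to printed compounds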
- applied.conditions: higher = more signal
Rule: composite z-score of -0.03 or more gives TRUE; anything lower gives FALSE.

The following molecules have reported results that may help.
# molecule, category.label
records = [
    ("CC(C)N1CC=CC23O[C@@H]4C=CCCOC(=O)C4[C@H]2C(=O)N(CCCCCO)[C@@H]3C1=O (stereo partly drawn)", "FALSE"),
    ("COc1ccc(CC[C@H](O)c2cccc(OCC(=O)OC(C)(C)C)c2)cc1", "TRUE"),
    ("CC(C)(C)N1CC=CC23O[C@@H]4/C=C\\CCCOC(=O)C4[C@H]2C(=O)N(CCCCCCO)[C@@H]3C1=O (stereo partly drawn)", "FALSE"),
    ("COC(=O)[C@@]1(CCC(=O)OC(C)(C)C)N=C(c2ccc(OCCCO)cc2)O[C@H]1c1ccccc1CN=[N+]=[N-]", "TRUE"),
    ("CCN(CC)c1ccc(N2CC=CC34O[C@@H]5C=CCOC(=O)[C@@H]5[C@H]3C(=O)N(CCO)[C@@H]4C2=O)cc1 (stereo partly drawn)", "TRUE"),
    ("COC(=O)[C@@]1(Cc2ccc(OC)cc2)[C@H]2c3cc(C(=O)N4CCCC4)n(CCc4ccc(OC)c(Br)c4)c3C[C@H]2CN1C(=O)c1ccccc1", "TRUE"),
    ("CCCCC=C[C@@H](NC(=O)c1ccc(C(F)(F)F)cc1)c1ccccc1", "FALSE"),
    ("COC(=O)[C@@]1(Cc2ccccc2)[C@@H]2[C@@H](CC(=O)[C@H]2CC(=O)C(=O)N(C)C)CN1C(=O)c1ccccc1", "FALSE"),
    ("COCCOC(=O)N1C(=O)[C@@]2(c3cc(C#CCNC(N)=O)ccc31)[C@H](C(=O)NC[C@H](O)c1ccccc1)[C@H]1C(=O)O[C@H](c3ccccc3)[C@H](c3ccccc3)N1[C@@H]2c1ccc(OCCO)cc1", "FALSE"),
    ("C=CCC(OC(C)=O)[C@@H]1[C@@H](N(Cc2ccc(-c3ccccc3)cc2)C(=O)c2ccc(-c3ccccc3)cc2)c2cc(OCCCO)ccc2N1C(=O)c1ccc2ccccc2n1 (stereo partly drawn)", "TRUE"),
]

# bool: composite z-score of `C=CCNC(=O)[C@@H]1[C@H]2C(=O)O[C@H](c3ccccc3)[C@H](c3ccccc3)N2[C@H](c2ccccc2OCCO)[C@@]12C(=O)N(C(=O)OCCOC)c1ccc(C#CCCO)cc12` >= -0.03
TRUE

Does C=CCC(OC(C)=O)[C@@H]1[C@@H](N(Cc2ccc(-c3cccc(C(F)(F)F)c3)o2)C(=O)c2cccc3ccccc23)c2cc(OCCCO)ccc2N1C(=O)c1ccc2ccccc2n1 (stereo partly drawn) have a reported composite z-score of at least -0.03?
TRUE

Check this molecule for composite z-score at or above -0.03: `CC1(C)OC[C@@]23C=C(Br)[C@@H](C[C@H]12)[C@@]1(CO1)C3=O`
FALSE

Please check the record `COCCOC(=O)N1C(=O)[C@@]2(c3cc(C#CC4(O)CCCCCC4)ccc31)[C@H](c1ccccc1OCCO)N1[C@H](c3ccccc3)[C@H](c3ccccc3)OC(=O)[C@H]1[C@@H]2C(=O)N1CCCCCCC1` and state if its composite z-score is at or above -0.03.
TRUE

Please tell me: is the molecule C=CCC(OC(C)=O)[C@@H]1[C@@H](N(Cc2cccc3ccccc23)C(=O)c2ccc(-c3ccccc3)cc2)c2cc(OCCCO)ccc2N1C(=O)c1ccc2ccccc2n1 (stereo partly drawn) at or over -0.03 in terms of composite z-score?
TRUE

Please tell me: is the molecule COC(=O)C1(CC(C)C)C=C2C(=C(C(C)C)C(=O)C2C)CN1 (stereo not drawn) at or over -0.03 in terms of composite z-score?
FALSE

Entry `CCCCC(=C=CC[C@H](O)c1ccc(OCCO)cc1)C[C@H](O)c1ccccn1` : is its composite z-score no less than -0.03?
TRUE

Could you tell me if the measured composite z-score of CCCCN1CC=CC23O[C@@H]4/C=C\CCC(C)OC(=O)C4[C@H]2C(=O)N(C(C)CO)[C@@H]3C1=O (stereo partly drawn) reaches -0.03 or more?
FALSE

For this molecule, is measured composite z-score -0.03 or higher? `C=CC[C@@]12N=C(c3ccc(OCCCO)cc3)O[C@@H]1c1ccccc1N(Cc1ccccc1)C2=O`
TRUE

hey, is composite z-score for this one >= -0.03? `COCC(=C=CC[C@@H](O)c1ccc(OCCO)cc1)C[C@@H](O)COCc1ccccc1`
TRUE

Reported composite z-score reaches at least -0.03 for `[N-]=[N+]=NCc1ccccc1C[C@]1(C(=O)O)COC(c2ccc(OCCCO)cc2)=N1` ?
FALSE

====

- Test system: PRMT1 (protein arginine N-methyltransferase 1)
- assay.procedure: PRMT1 binders on small-molecule microarrays, primary screen, biochemical, small-molecule microarray, 635 nm fluorescence (AID 1088);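 note: binding of Prmt1 protein to compounds spotted on small-molecule microarray slides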
- applied.conditions: small-molecule microarray binding, higher = more signal
Recorded composite z-score by entry
API doc: respond with a numeric literal and nothing else, no unit.

Solved cases below.
# molecule, observed.property, obs.value
records = [
    ("CC(C)CNC(=O)[C@@H]1c2ccccc2C(=O)N(Cc2ccccc2Cl)[C@H]1c1ccc(CO)cc1", "composite z-score", -0.469),
    ("COc1cccc(C[C@H]2C[C@@H](CO[Si](C(C)C)(C(C)C)C(C)C)N3C(=O)[C@@]4(C(C)=O)O[C@@]23[C@@H]2C(=O)N(C)C(=O)[C@@H]24)c1", "composite z-score", 1.56),
    ("CCCC=C(CCC)[C@@H](NC(=O)c1ccco1)c1ccc(C(=O)OC)cc1", "composite z-score", 0.997),
    ("CC(C)C[C@@H]1NC(=O)[C@@H]2C[C@H](C(=O)NCCCC[N+](C)(C)C)[C@H](c3ccc(O)cc3)N2C1=O", "composite z-score", 1.53),
    ("CC(C)C[C@@H]1NC(=O)[C@@]23C(=O)N[C@@H](Cc4ccccc4)C2[C@H](C)[C@@]2(C)O[C@H]2C3/C=C/C/C=C\\CNC(=O)[C@@H](CC(C)C)NC1=O (some centres undefined)", "composite z-score", 1.55),
]

Please fill in: composite z-score reported for `COCCOC(=O)N1C(=O)[C@@]2(c3ccccc31)[C@H](C(N)=O)[C@H]1C(=O)O[C@H](c3ccccc3)[C@H](c3ccccc3)N1[C@@H]2c1ccc(OCCO)cc1` = 1.54

`CC(C)[C@@H](C(=O)O)n1cc(-c2ccccc2)nn1` yielded composite z-score of 0.0283

Lookup result for `CC(C)CNC(=O)[C@@H]1c2ccccc2C(=O)N(CC23CC4CC(CC(C4)C2)C3)[C@H]1c1ccc(CO)cc1` ; measured composite z-score: 0.797

Form field composite z-score, entry `COc1ccc([Si](C)(C)[C@@H]2[C@@H](CCO)O[C@]3(C(=O)N(Cc4ccccc4)c4ccc(N5C(=O)c6ccccc6Oc6ccccc65)cc43)[C@H]2C)cc1` : 0.182

The reported value for COC(=O)C1=CC(CCCO)=CC(c2ccc(CN3CCCC3)cc2)N(Cc2sc3ccccc3c2Cl)C=C1C(=O)OC (centres undefined) in terms of composite z-score is 1.54

What the record says about `COCCOC(=O)N1C(=O)[C@@]2(c3cc(C#CCCO)ccc31)[C@H](c1ccc(O)cc1)N1[C@H](c3ccccc3)[C@H](c3ccccc3)OC(=O)[C@H]1[C@@H]2C(=O)N1CCc2cc(OC)c(OC)cc2C1` : composite z-score is 1.52

Form: molecule = COc1cc2c(cc1O)C(C1CC1)N(Cc1ccc([N+](=O)[O-])o1)CC2 (centres undefined) ; composite z-score = 0.287

Entry `CCCCC(=C=CC[C@H](O)c1ccc(OCCO)cc1)C[C@H](O)c1ccccn1` — recorded composite z-score = 1.54

composite z-score measured on `O=C1O[C@@H](c2ccccc2)[C@@H](c2ccccc2)N2[C@@H](c3ccc(OCCO)cc3)[C@]3(C(=O)Nc4ccc(C#CCCO)cc43)[C@@H](C(=O)Nc3nc4ccccc4s3)[C@H]12` = 1.5
